Each recorded value in this set is attributed to ChEMBL document CHEMBL1146593.

Assay: Chemoprevention index, ratio of IC50 for mouse Hepa-1c1c7 cells to drug level required to double NADPH:quinone reductase activity in mouse Hepa-1c1c7 cells
Format: functional
Each record is given y if its reported Ratio is strictly below 5. Records at or above 5 are given n.

# check: Ratio < 5 for `COc1cc2c(c(OC)c1C(=O)CC(=O)c1ccc3c(c1)OCO3)C=CC(C)(C)O2`
y

Same read-out for `COc1cc(OC)c2c(c1CC=C(C)C)O[C@H](c1ccc3c(c1)OCO3)CC2=O` ?
n

Same read-out for `C=C(C)[C@@H](O)Cc1c(OC)cc(OC)c2c1O[C@H](c1ccccc1)CC2=O` ?
y

Same read-out for C[S+]([O-])CCCCN=C=S (stereo not given) ?
n

Same read-out for `COc1cc2c(c3oc(-c4ccccc4)cc(=O)c13)C=CC(C)(C)O2` ?
y

Same read-out for `COc1cc2c(c(OC)c1C(=O)/C=C(\O)c1ccccc1)C=CC(C)(C)O2` ?
y

Same read-out for `COc1cc(OC)c2c(c1CC=C(C)C)O[C@H](c1ccccc1)CC2=O` ?
y

Same read-out for `CO/C(=C\C(=O)c1c(OC)cc2c(c1OC)C=CC(C)(C)O2)c1ccccc1` ?
n
